TARGET: TEAD1 in NCI-H226 cells (Homo sapiens (Human), UniProt P28347)
Sequence (P28347 whole entry): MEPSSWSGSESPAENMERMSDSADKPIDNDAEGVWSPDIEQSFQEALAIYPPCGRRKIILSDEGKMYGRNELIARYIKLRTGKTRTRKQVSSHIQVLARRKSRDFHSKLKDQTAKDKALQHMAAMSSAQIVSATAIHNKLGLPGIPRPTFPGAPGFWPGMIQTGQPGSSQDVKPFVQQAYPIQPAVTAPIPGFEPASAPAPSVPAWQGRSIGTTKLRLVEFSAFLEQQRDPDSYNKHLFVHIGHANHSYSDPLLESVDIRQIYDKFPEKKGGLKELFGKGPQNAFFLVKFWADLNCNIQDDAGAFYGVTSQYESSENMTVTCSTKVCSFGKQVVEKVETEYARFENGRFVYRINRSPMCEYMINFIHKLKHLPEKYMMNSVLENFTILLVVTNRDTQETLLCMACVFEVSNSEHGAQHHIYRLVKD
PROTOCOL SUMMARY: TEAD degradation in NCI-H226 cell line (immunofluorescence)
Assay type: cell-based
SETTINGS: 24 hours, ranges, read-out: DC50 NCI-H226
READOUT LABEL: DC50

{"MOLECULE": "Cn1cc2c3cc(C(=O)NCCOCCOCCOCCOCCOCC(=O)Nc4cccc5c4C(=O)N(C4CCC(=O)NC4=O)C5=O)ccc3n(-c3ccc(C(F)(F)F)cc3)c2n1 (centres unmarked)", "READOUT LABEL": "DC50", "ENDPOINT RESULT": "1 to 3 µM"}

Exercise: Data request, read-out DC50, for Cn1cc2c3cc(C(=O)NCCOCCOCCOCCNc4cccc5c4C(=O)N(C4CCC(=O)NC4=O)C5=O)ccc3n(-c3ccc(C(F)(F)F)cc3)c2n1 (centres unmarked)
Solution: < 0.1 µM

Exercise: Looking for the measured DC50 of Cc1ncsc1-c1ccc(CNC(=O)[C@@H]2C[C@@H](O)CN2C(=O)[C@@H](NC(=O)CCOCCC(=O)NCCOCCOCCNC(=O)c2ccc3c(c2)c2cn(C)nc2n3-c2ccc(C(F)(F)F)cc2)C(C)(C)C)cc1 , can you help?
Solution: 3 to 9 µM

Exercise: I have this molecule here, CN(CCOCCOCCOCCOCCNC(=O)c1ccc2c(c1)c1cn(C)nc1n2-c1ccc(C(F)(F)F)cc1)c1cccc2c1C(=O)N(C1CCC(=O)NC1=O)C2=O (centres unmarked) , and I need its recorded DC50.
Solution: 0.1 to 1 µM

Exercise: What DC50 value was documented for this molecule, CCNC(=O)[C@H](Cc1ccccc1)NC(=O)[C@@H]1CCCN1C(=O)[C@@H](NC(=O)[C@H](C)NCCCCCCNC(=O)c1ccc2c(c1)c1cn(C)nc1n2-c1ccc(C(F)(F)F)cc1)C1CCCCC1 ?
Solution: 9 to 30 µM
